Species on record: Rattus norvegicus
Experiment: Open TG-GATES - Regimen: Daily Repeat
Type: toxicity, organism-based, Sprague-Dawley
Set-up: regimen Daily Repeat, gender Male, age 6 weeks
Conditions: in vivo, po, 1000 mg/kg, 72 h, tissue Blood, route gavage, dose level High, time 3 day
Measurement Type: Lym

• Cc1nnc2n1-c1ccc(Cl)cc1C(c1ccccc1Cl)=NC2 = 78.2%
• CCOc1ccc(NC(C)=O)cc1 = 69.4%
• CNC(=C[N+](=O)[O-])NCCSCc1ccc(CN(C)C)o1 = 78.4%
• COC(=O)C1=C(C)NC(C)=C(C(=O)OC)C1c1ccccc1[N+](=O)[O-] = 76.8%
• O=C(OC[C@H]1O[C@@H](OC(=O)c2cc(O)c(O)c(OC(=O)c3cc(O)c(O)c(O)c3)c2)[C@H](OC(=O)c2cc(O)c(O)c(OC(=O)c3cc(O)c(O)c(O)c3)c2)[C@@H](OC(=O)c2cc(O)c(O)c(OC(=O)c3cc(O)c(O)c(O)c3)c2)[C@@H]1OC(=O)c1cc(O)c(O)c(OC(=O)c2cc(O)c(O)c(O)c2)c1)c1cc(O)c(O)c(OC(=O)c2cc(O)c(O)c(O)c2)c1 = 67.8%
• CN/C(=N/CCSCc1nc[nH]c1C)NC#N = 80.8%

###

Species on record: Rattus norvegicus
Assay: Open TG-GATES - Regimen: Single
Assay type: toxicity, organism-based, Sprague-Dawley
Parameters: regimen Single, gender Male, age 6 weeks
Details: in vivo, po, 1000 mg/kg, 24 h, tissue Plasma, route gavage, dose level High
Binary classification by TG, with 80 mg/dL as an inclusive lower bound for Met; all other cases are Not met.

- Cc1nnc2n1-c1ccc(Cl)cc1C(c1ccccc1Cl)=NC2: Met
- COC(=O)C1=C(C)NC(C)=C(C(=O)OC)C1c1ccccc1[N+](=O)[O-]: Not met
- CNC(=C[N+](=O)[O-])NCCSCc1ccc(CN(C)C)o1: Not met
- CN/C(=N/CCSCc1nc[nH]c1C)NC#N: Met

###

Species on record: Rattus norvegicus
Assay: Open TG-GATES - Regimen: Daily Repeat
Assay type: toxicity, organism-based, Sprague-Dawley
Parameters: regimen Daily Repeat, gender Male, age 6 weeks
Settings: in vivo, po, 0 mg/kg, 72 h, tissue Plasma, route gavage, dose level Control, time 3 day
Measurement Type: TC (mg/dL)

- Cc1nnc2n1-c1ccc(Cl)cc1C(c1ccccc1Cl)=NC2: 86.4
- NC1=NC(=O)C(c2ccccc2)O1 (centres undefined): 86
- CN(C)CCC(c1ccc(Cl)cc1)c1ccccn1 (centres undefined): 79
- O=C(OC[C@H]1O[C@@H](OC(=O)c2cc(O)c(O)c(OC(=O)c3cc(O)c(O)c(O)c3)c2)[C@H](OC(=O)c2cc(O)c(O)c(OC(=O)c3cc(O)c(O)c(O)c3)c2)[C@@H](OC(=O)c2cc(O)c(O)c(OC(=O)c3cc(O)c(O)c(O)c3)c2)[C@@H]1OC(=O)c1cc(O)c(O)c(OC(=O)c2cc(O)c(O)c(O)c2)c1)c1cc(O)c(O)c(OC(=O)c2cc(O)c(O)c(O)c2)c1: 75.2

###

Species on record: Rattus norvegicus
Assay: Open TG-GATES - Regimen: Single
Format: toxicity, organism-based, Sprague-Dawley
Set-up: regimen Single, gender Male, age 6 weeks
Settings: in vivo, po, 300 mg/kg, 3 h, tissue Kidney, route gavage, dose level Middle
Measurement Type: KIDNEY_R (g)

* Cc1nnc2n1-c1ccc(Cl)cc1C(c1ccccc1Cl)=NC2 [TRIAZOLAM] | 0.8
* CNC(=C[N+](=O)[O-])NCCSCc1ccc(CN(C)C)o1 [RANITIDINE] | 1
* CN/C(=N/CCSCc1nc[nH]c1C)NC#N [CIMETIDINE] | 0.9
* COC(=O)C1=C(C)NC(C)=C(C(=O)OC)C1c1ccccc1[N+](=O)[O-] [NIFEDIPINE] | 0.9
* O=C(OC[C@H]1O[C@@H](OC(=O)c2cc(O)c(O)c(OC(=O)c3cc(O)c(O)c(O)c3)c2)[C@H](OC(=O)c2cc(O)c(O)c(OC(=O)c3cc(O)c(O)c(O)c3)c2)[C@@H](OC(=O)c2cc(O)c(O)c(OC(=O)c3cc(O)c(O)c(O)c3)c2)[C@@H]1OC(=O)c1cc(O)c(O)c(OC(=O)c2cc(O)c(O)c(O)c2)c1)c1cc(O)c(O)c(OC(=O)c2cc(O)c(O)c(O)c2)c1 [TANNIC ACID] | 0.9

###

Organism: Rattus norvegicus
Assay: Open TG-GATES - Regimen: Single
Format: toxicity, organism-based, Sprague-Dawley
Parameters: regimen Single, gender Male, age 6 weeks
Conditions: in vivo, po, 100 mg/kg, 9 h, tissue Plasma, route gavage, dose level Low
Measurement Type: TBIL

• COC(=O)C1=C(C)NC(C)=C(C(=O)OC)C1c1ccccc1[N+](=O)[O-] = 0.046 mg/dL
• Cc1nnc2n1-c1ccc(Cl)cc1C(c1ccccc1Cl)=NC2 = 0.062 mg/dL
• O=C(OC[C@H]1O[C@@H](OC(=O)c2cc(O)c(O)c(OC(=O)c3cc(O)c(O)c(O)c3)c2)[C@H](OC(=O)c2cc(O)c(O)c(OC(=O)c3cc(O)c(O)c(O)c3)c2)[C@@H](OC(=O)c2cc(O)c(O)c(OC(=O)c3cc(O)c(O)c(O)c3)c2)[C@@H]1OC(=O)c1cc(O)c(O)c(OC(=O)c2cc(O)c(O)c(O)c2)c1)c1cc(O)c(O)c(OC(=O)c2cc(O)c(O)c(O)c2)c1 = 0.5 mg/dL
• CN/C(=N/CCSCc1nc[nH]c1C)NC#N = 0.1 mg/dL
• CNC(=C[N+](=O)[O-])NCCSCc1ccc(CN(C)C)o1 = 0.1 mg/dL

###

Species: Rattus norvegicus
Assay: Open TG-GATES - Regimen: Single
Assay type: toxicity, organism-based, Sprague-Dawley
Parameters: regimen Single, gender Male, age 6 weeks
Settings: in vivo, po, 100 mg/kg, 24 h, tissue Blood, route gavage, dose level Low
Listed next: entries and their corresponding MCHC.
Measurement Type: MCHC

• CN/C(=N/CCSCc1nc[nH]c1C)NC#N = 33.7%
• COC(=O)C1=C(C)NC(C)=C(C(=O)OC)C1c1ccccc1[N+](=O)[O-] = 32.2%
• O=C(OC[C@H]1O[C@@H](OC(=O)c2cc(O)c(O)c(OC(=O)c3cc(O)c(O)c(O)c3)c2)[C@H](OC(=O)c2cc(O)c(O)c(OC(=O)c3cc(O)c(O)c(O)c3)c2)[C@@H](OC(=O)c2cc(O)c(O)c(OC(=O)c3cc(O)c(O)c(O)c3)c2)[C@@H]1OC(=O)c1cc(O)c(O)c(OC(=O)c2cc(O)c(O)c(O)c2)c1)c1cc(O)c(O)c(OC(=O)c2cc(O)c(O)c(O)c2)c1 = 33.4%
• CNC(=C[N+](=O)[O-])NCCSCc1ccc(CN(C)C)o1 = 35.2%
• Cc1nnc2n1-c1ccc(Cl)cc1C(c1ccccc1Cl)=NC2 = 32.8%

###

Species: Rattus norvegicus
Assay: Open TG-GATES - Regimen: Single
Assay type: toxicity, organism-based, Sprague-Dawley
Design: regimen Single, gender Male, age 6 weeks
Settings: in vivo, po, 0 mg/kg, 6 h, tissue Blood, route gavage, dose level Control
Measurement Type: Lym (%)

- CN1C(=O)CCS(=O)(=O)C1c1ccc(Cl)cc1 (configuration not stated) [CHLORMEZANONE]: 75
- CS(=O)(=O)O.Cc1ccc(NC(=O)c2ccc(CN3CCN(C)CC3)cc2)cc1Nc1nccc(-c2cccnc2)n1 [IMATINIB MESYLATE]: 80.4
- CN(C)CCC(c1ccc(Cl)cc1)c1ccccn1 (configuration not stated) [CHLORPHENIRAMINE]: 76.8
- CN/C(=N/CCSCc1nc[nH]c1C)NC#N [CIMETIDINE]: 75.6
- COC(=O)C1=C(C)NC(C)=C(C(=O)OC)C1c1ccccc1[N+](=O)[O-] [NIFEDIPINE]: 71.2
- Brc1ccccc1 [BROMOBENZENE]: 75.8
- O=C(OC[C@H]1O[C@@H](OC(=O)c2cc(O)c(O)c(OC(=O)c3cc(O)c(O)c(O)c3)c2)[C@H](OC(=O)c2cc(O)c(O)c(OC(=O)c3cc(O)c(O)c(O)c3)c2)[C@@H](OC(=O)c2cc(O)c(O)c(OC(=O)c3cc(O)c(O)c(O)c3)c2)[C@@H]1OC(=O)c1cc(O)c(O)c(OC(=O)c2cc(O)c(O)c(O)c2)c1)c1cc(O)c(O)c(OC(=O)c2cc(O)c(O)c(O)c2)c1 [TANNIC ACID]: 75.2

###

Overview of recorded Ht for various molecules
Organism: Rattus norvegicus
Experiment: Open TG-GATES - Regimen: Daily Repeat
Assay type: toxicity, organism-based, Sprague-Dawley
Set-up: regimen Daily Repeat, gender Male, age 6 weeks
Conditions: in vivo, po, 0 mg/kg, […], tissue Blood, route gavage, dose level Control, time 14 day
Measurement Type: Ht (%)

* CCOc1ccc(NC(C)=O)cc1 | 42.1
* CNC(=C[N+](=O)[O-])NCCSCc1ccc(CN(C)C)o1 | 42.2
* CN(C)CCC(c1ccc(Cl)cc1)c1ccccn1 (configuration not stated) | 45.2
* O=C(OC[C@H]1O[C@@H](OC(=O)c2cc(O)c(O)c(OC(=O)c3cc(O)c(O)c(O)c3)c2)[C@H](OC(=O)c2cc(O)c(O)c(OC(=O)c3cc(O)c(O)c(O)c3)c2)[C@@H](OC(=O)c2cc(O)c(O)c(OC(=O)c3cc(O)c(O)c(O)c3)c2)[C@@H]1OC(=O)c1cc(O)c(O)c(OC(=O)c2cc(O)c(O)c(O)c2)c1)c1cc(O)c(O)c(OC(=O)c2cc(O)c(O)c(O)c2)c1 | 41.6
* CC(C)NNC(=O)c1ccncc1 | 39.5
* COC(=O)C1=C(C)NC(C)=C(C(=O)OC)C1c1ccccc1[N+](=O)[O-] | 44.1
* CN1C(=O)CCS(=O)(=O)C1c1ccc(Cl)cc1 (configuration not stated) | 41.2
